The reader will find reported IL-1α IC50 values listed item by item below.
ASSAY SYSTEM: T1, human IL-1α (human, UniProt P01583 113-271)
T1 sequence (looked up): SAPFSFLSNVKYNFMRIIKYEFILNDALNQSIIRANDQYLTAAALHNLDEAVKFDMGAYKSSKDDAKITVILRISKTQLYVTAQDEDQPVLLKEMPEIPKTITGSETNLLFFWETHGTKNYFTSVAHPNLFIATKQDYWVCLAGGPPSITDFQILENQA
PROTOCOL TEXT: cell-based or functional assay
# include the unit after the value

>>> val("ABT2-108/ABT1-122-555 hu IgG1/K wt (bispecific antibody, V domains shown) VH: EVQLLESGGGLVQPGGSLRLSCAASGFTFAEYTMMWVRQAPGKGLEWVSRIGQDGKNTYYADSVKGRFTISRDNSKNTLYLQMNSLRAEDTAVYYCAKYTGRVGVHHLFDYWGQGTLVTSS VL: DIQMTQSPSSLSASVGDRVTITCRASQPIWTELNWYQQKPGKTPKLLIYGSSSLQSGVPSRFSGSGSGTDFTLTISSLQPEDFATYYCQQFAYFPATFGQGTKVEIKR")
"70 nM"

Ask: Assign IL-1α IC50 to the following record: ABT2-108-537x/ABT1-122 hu IgG1/K wt (bispecific antibody, V domains shown) VH: EVQLLESGGGLVQPGGSLRLSCAASGFTFADEGMMWVRQAPGKGLEWVSRIGQDGKNTYYRMDVKGRFTISRDNSKNTLYLQMNSLRAEDTAVYYCAKYTGRILGHHLFDYWGQGTLVTVSS VL: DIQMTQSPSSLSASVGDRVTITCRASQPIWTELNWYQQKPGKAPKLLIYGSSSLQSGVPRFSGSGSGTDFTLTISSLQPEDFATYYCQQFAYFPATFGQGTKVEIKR
Result: 1000 nM
